B1: library; numbered along this chain (parent)
chain: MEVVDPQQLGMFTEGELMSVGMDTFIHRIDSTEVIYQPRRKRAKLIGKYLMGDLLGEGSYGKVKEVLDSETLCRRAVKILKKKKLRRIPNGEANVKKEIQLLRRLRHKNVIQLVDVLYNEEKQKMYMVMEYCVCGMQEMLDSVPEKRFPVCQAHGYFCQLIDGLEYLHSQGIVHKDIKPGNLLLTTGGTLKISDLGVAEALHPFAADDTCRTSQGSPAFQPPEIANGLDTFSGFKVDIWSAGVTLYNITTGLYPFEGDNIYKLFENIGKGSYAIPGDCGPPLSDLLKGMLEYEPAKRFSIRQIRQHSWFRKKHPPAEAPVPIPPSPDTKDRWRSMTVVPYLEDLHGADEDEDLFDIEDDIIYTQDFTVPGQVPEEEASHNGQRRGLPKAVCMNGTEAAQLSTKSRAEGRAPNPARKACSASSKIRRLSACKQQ

Variants of: B1
Assay Text: STK11 functional score (HeLa growth suppression), rescaled enrichment; synonymous median = 1, nonsense median = 0 (normalised score)
Assay Setup: with HeLa; variant type: missense
Measured Quantity: STK11 functional score

Consider the reported STK11 functional score for these variants:
>  <Sequence Change>
F148Y

>  <Result>
0.892

$$$$
>  <Sequence Change>
M129N

>  <Result>
0.571

$$$$
>  <Sequence Change>
G215W

>  <Result>
0.29

$$$$
>  <Sequence Change>
P217R

>  <Result>
0.3

$$$$
>  <Sequence Change>
S378T

>  <Result>
1.4

$$$$
>  <Sequence Change>
G276F

>  <Result>
0.884

$$$$

Measured STK11 functional score, "L102F" : 1.11

Record summary for "S428Y" : reported STK11 functional score = 1.39
